The reported numbers originate from patent US20260265238A1.

# target system: SMARCA2-HiBiT HeLa cells (protein which is expressed from the SMARCA2 gene) (Homo sapiens)
# Construct: protein which is expressed from the SMARCA2 and SMARCA4 genes; host or cells: HeLa (SMARCA2-HiBiT engineered line)
# method description: SMARCA2 degradation assay (HiBiT-fusion HeLa cell line, 24 h, luminescence)
# Assay type: cell-based
The compounds listed here are annotated with their DC50.

Completed entries (count: 3):
1. C[C@@H]1CN(CC#Cc2nccc(N3CCCN(c4cc(-c5ccccc5O)nnc4N)CC3)n2)CCO1; 50 to 500 nM
2. C[C@@H]1CCN(c2cc(-c3ccccc3O)nnc2N)CCN1c1ccnc(C#CCN2CCCCC2)n1; < 50 nM
3. Nc1nnc(-c2ccccc2O)cc1N1CCCC2C1CCN2c1ccnc(C#CCNC(=O)c2cc3ncccn3n2)n1 (stereo not drawn); 500 to 5000 nM

stdin: Please report DC50 with SMARCA2-HiBiT HeLa cells (protein which is expressed from the SMARCA2 gene) (Homo sapiens) for item C[C@H]1CCN1CC#Cc1nccc(N2CCCN(c3cc(-c4ccccc4O)nnc3N)CC2)n1 .
stdout: 50 to 500 nM

stdin: Please report DC50 with SMARCA2-HiBiT HeLa cells (protein which is expressed from the SMARCA2 gene) (Homo sapiens) for item CCOc1cc(N2CCCN(c3cc(-c4ccccc4O)nnc3N)CC2)nc(C#CCNC(=O)c2cc3ncccn3n2)n1 .
stdout: 50 to 500 nM

stdin: Please report DC50 with SMARCA2-HiBiT HeLa cells (protein which is expressed from the SMARCA2 gene) (Homo sapiens) for item Nc1nnc(-c2ccccc2O)cc1OC1CC2CN(c3ccnc(C#CCn4ccnc4)n3)CC2C1 (stereo not drawn) .
stdout: 50 to 500 nM

----------
The molecules listed here are annotated with their DC50.
# target system: SMARCA2-HiBiT HeLa cells (protein which is expressed from the SMARCA2 gene) (Homo sapiens, UniProt P51531)
# Construct: protein which is expressed from the SMARCA2 and SMARCA4 genes; host or cells: HeLa (SMARCA2-HiBiT engineered line)
# Sequence (P51531 whole entry): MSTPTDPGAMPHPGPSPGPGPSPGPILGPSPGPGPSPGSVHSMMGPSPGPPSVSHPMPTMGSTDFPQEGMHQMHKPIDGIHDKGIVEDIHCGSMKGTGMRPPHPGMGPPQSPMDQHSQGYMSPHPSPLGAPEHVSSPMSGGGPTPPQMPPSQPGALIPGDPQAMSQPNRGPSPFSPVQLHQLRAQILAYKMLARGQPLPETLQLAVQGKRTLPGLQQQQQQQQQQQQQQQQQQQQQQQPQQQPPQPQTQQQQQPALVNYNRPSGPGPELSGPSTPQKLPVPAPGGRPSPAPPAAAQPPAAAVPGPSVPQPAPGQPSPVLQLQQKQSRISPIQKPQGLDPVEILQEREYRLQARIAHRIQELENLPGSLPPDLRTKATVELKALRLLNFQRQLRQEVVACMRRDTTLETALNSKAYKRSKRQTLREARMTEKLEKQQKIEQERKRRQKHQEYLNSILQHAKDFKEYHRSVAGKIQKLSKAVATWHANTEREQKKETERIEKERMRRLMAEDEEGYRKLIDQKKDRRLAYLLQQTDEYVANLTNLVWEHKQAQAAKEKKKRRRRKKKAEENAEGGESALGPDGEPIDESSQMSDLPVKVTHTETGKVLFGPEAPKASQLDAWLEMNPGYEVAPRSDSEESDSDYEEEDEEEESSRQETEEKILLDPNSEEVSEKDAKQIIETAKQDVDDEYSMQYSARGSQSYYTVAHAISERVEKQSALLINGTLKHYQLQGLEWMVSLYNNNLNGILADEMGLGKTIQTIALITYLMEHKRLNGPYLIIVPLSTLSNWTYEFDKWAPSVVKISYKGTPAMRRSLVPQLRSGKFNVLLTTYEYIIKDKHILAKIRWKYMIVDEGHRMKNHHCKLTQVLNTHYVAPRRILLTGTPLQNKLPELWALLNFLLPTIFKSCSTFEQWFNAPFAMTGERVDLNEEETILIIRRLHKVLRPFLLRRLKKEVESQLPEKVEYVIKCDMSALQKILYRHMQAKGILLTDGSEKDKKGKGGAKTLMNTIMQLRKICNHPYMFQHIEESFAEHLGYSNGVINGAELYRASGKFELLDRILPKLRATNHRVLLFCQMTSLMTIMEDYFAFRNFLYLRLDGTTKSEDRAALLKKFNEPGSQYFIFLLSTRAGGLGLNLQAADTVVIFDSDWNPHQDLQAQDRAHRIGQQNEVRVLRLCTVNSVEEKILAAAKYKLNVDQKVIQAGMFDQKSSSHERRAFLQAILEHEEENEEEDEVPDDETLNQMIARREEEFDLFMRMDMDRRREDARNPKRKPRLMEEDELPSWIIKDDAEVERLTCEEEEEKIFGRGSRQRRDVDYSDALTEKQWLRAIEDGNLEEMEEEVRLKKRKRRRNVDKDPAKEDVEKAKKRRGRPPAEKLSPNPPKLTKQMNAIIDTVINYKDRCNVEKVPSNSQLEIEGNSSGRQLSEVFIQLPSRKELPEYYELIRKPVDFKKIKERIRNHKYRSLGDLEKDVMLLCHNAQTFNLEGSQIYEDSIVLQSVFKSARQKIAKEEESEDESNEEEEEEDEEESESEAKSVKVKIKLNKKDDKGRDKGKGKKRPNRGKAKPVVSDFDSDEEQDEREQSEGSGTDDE
# method description: SMARCA2 degradation assay (HiBiT-fusion HeLa cell line, 24 h, luminescence)
# Type: cell-based

Completed entries (count: 5):
1) COCC#Cc1nccc(N2CCCN(c3cc(-c4ccccc4O)nnc3N)CC2)n1; 0.05 to 0.5 µM
2) Nc1nnc(-c2ccccc2O)cc1N1CC2CCC(C1)N2c1nc(C#CCn2ccnc2)ncc1F; 0.05 to 0.5 µM
3) C[C@@H]1CCN(c2cc(-c3ccccc3O)nnc2N)CCN1c1ccnc(C#CC2CCCO2)n1 (some centres unmarked); 0.05 to 0.5 µM
4) Nc1nnc(-c2ccccc2O)cc1N1CCCN(c2ccnc(C#CCNCCF)n2)CC1; 0.5 to 5 µM
5) Nc1nnc(-c2ccccc2O)cc1N1CCN(c2ccnc(C#CCNC(=O)c3cc4ncccn4n3)n2)CC(F)C1 (centres unmarked); 0.5 to 5 µM

Now for the molecule whose DC50 we want.
stdin: Read off the recorded DC50 for Cn1ccc(NCC#Cc2nccc(N3C4CCC3CN(c3cc(-c5ccccc5O)nnc3N)C4)n2)n1
stdout: 0.05 to 0.5 µM

----------
# target system: SMARCA2-HiBiT HeLa cells (protein which is expressed from the SMARCA2 gene) (Homo sapiens)
# Construct: protein which is expressed from the SMARCA2 and SMARCA4 genes; host or cells: HeLa (SMARCA2-HiBiT engineered line)
# method description: SMARCA2 degradation assay (HiBiT-fusion HeLa cell line, 24 h, luminescence)
# Type: cell-based
The molecules listed here are annotated with their DC50.

1. C[C@@H]1CN(CC#Cc2nccc(N3CCCN(c4cc(-c5ccccc5O)nnc4N)CC3)n2)C[C@@H](C)O1; 0.5 to 5 µM
2. Nc1nnc(-c2ccccc2O)cc1N1CCCN(c2ccnc(C#CC34CCCN3CCC4)n2)CC1; 0.05 to 0.5 µM
3. C[C@@H]1CCN(c2cc(-c3ccccc3O)nnc2N)CCN1c1ccnc(C#CCN2C3COCC2C3)n1; < 0.05 µM
4. C[C@H]1COCCN1CC#Cc1nccc(N2CCCN(c3cc(-c4ccccc4O)nnc3N)CC2)n1; 0.05 to 0.5 µM
5. C[C@@H]1CCN1CC#Cc1nccc(N2CCCN(c3cc(-c4ccccc4O)nnc3N)CC2)n1; 0.05 to 0.5 µM
6. C[C@@H]1CCN(c2cc(-c3ccccc3O)nnc2N)CCN1c1ccnc(/C=C/CN(C)C)n1; 0.05 to 0.5 µM
7. CC1CC(C)N1CC#Cc1nccc(N2CCN(c3cc(-c4ccccc4O)nnc3N)CC[C@H]2C)n1 (stereo partly shown); < 0.05 µM
8. C[C@@H]1CCN(c2cc(-c3ccccc3O)nnc2N)CCN1c1ccnc(C#CC2CC(F)(F)C2)n1; 0.05 to 0.5 µM

stdin: Read off the recorded DC50 for Nc1nnc(-c2ccccc2O)cc1N1CC2CCC(C1)N2c1ccnc(C#CCN2CC3CC2C3)n1
stdout: < 0.05 µM

stdin: Read off the recorded DC50 for Cc1c(C(=O)NC/C=C/c2nccc(N3CCCN(c4cc(-c5ccccc5O)nnc4N)CC3)n2)nn(C)c1C
stdout: 0.05 to 0.5 µM

stdin: Read off the recorded DC50 for CC(C)(C)OC(=O)N1CCCC1C#Cc1nccc(N2CCCN(c3cc(-c4ccccc4O)nnc3N)CC2)n1 (stereo not shown)
stdout: 0.05 to 0.5 µM

stdin: Read off the recorded DC50 for C[C@@H]1CCN(c2cc(-c3ccccc3O)nnc2N)CCN1c1ccnc(C#CC2CCCCN2C)n1 (stereo partly shown)
stdout: < 0.05 µM

stdin: Read off the recorded DC50 for Oc1ccccc1-c1cc(N2CC3CCC(C2)N3c2ccnc(C#CCN3CCCCC3)n2)cnn1
stdout: < 0.05 µM

----------
# target system: SMARCA2-HiBiT HeLa cells (protein which is expressed from the SMARCA2 gene) (Homo sapiens, UniProt P51531)
# Construct: protein which is expressed from the SMARCA2 and SMARCA4 genes; host or cells: HeLa (SMARCA2-HiBiT engineered line)
# method description: SMARCA2 degradation assay (HiBiT-fusion HeLa cell line, 24 h, luminescence)
# Format: cell-based
reported property: DC50

Completed entries (count: 2):
1) Cc1nn2ccn(CC#Cc3nccc(N4C5CCC4CN(c4cc(-c6ccccc6O)nnc4N)C5)n3)c(=O)c2c1C [Compound P-103]; 50 to 500 nM
2) CN(C)CC#Cc1nc(N2CCCN(c3cc(-c4ccccc4O)nnc3N)CC2)ccc1C#N [Compound P-385]; 50 to 500 nM

stdin: Read off the recorded DC50 for C[C@@H]1CN(c2ccnc(C#CCNC(=O)c3cc4ncccn4n3)n2)C[C@@H](C)N1c1cc(-c2ccccc2O)nnc1N [Compound P-82]
stdout: 500 to 5000 nM

stdin: Read off the recorded DC50 for Nc1nnc(-c2ccccc2O)cc1N1CCN(c2ccnc(C#CCNC(=O)c3cc4ccccc4[nH]3)n2)CC1 [Compound P-73]
stdout: 50 to 500 nM

stdin: Read off the recorded DC50 for Nc1nnc(-c2ccccc2O)cc1N1CCCN(c2ccnc(C#CCn3ccnn3)n2)CC1 [Compound P-144]
stdout: 50 to 500 nM

stdin: Read off the recorded DC50 for C[C@@H]1CCN(c2cc(-c3ccccc3O)nnc2N)CCN1c1ccnc(C#CCN2[C@H](C)COC[C@@H]2C)n1 [Compound P-260]
stdout: < 50 nM

----------
# target system: SMARCA2-HiBiT HeLa cells (protein which is expressed from the SMARCA2 gene) (Homo sapiens)
# Construct: protein which is expressed from the SMARCA2 and SMARCA4 genes; host or cells: HeLa (SMARCA2-HiBiT engineered line)
# method description: SMARCA2 degradation assay (HiBiT-fusion HeLa cell line, 24 h, luminescence)
# Type: cell-based
# particulars: 1 μM
reported property: SMARCA2 % Degradation @ 1 μM

Completed entries (count: 5):
1) C[C@@H]1CCN(c2cc(-c3ccccc3O)nnc2N)CCN1c1ccc(C(F)(F)F)c(C#CCN2CCCC2)n1; + (+=<30%)
2) CN(C)CC#Cc1nc(N2CCCN(c3cc(-c4ccccc4O)nnc3N)CC2)ccc1C#N; +++ (+++=>70%)
3) CN(C)CC#Cc1cc(N2C[C@@H]3CN(c4cc(-c5ccccc5O)nnc4N)C[C@@H]3C2)ccn1; ++ (++=30-70%)
4) C[C@@H]1CN(CC#Cc2nccc(N3CCCN(c4cc(-c5ccccc5O)nnc4N)CC3)n2)C[C@H](c2ccccc2)O1; ++ (++=30-70%)
5) C[C@@H]1CCN(c2cc(-c3ccccc3O)nnc2N)CCN1c1ccnc(C#CCn2ccnc2)c1; +++ (+++=>70%)

stdin: Please report SMARCA2 % Degradation @ 1 μM with SMARCA2-HiBiT HeLa cells (protein which is expressed from the SMARCA2 gene) (Homo sapiens) for item CC1CC(C)N1CC#Cc1cc(N2CCN(c3cc(-c4ccccc4O)nnc3N)CC[C@H]2C)ccn1 (stereo partly drawn) .
stdout: +++ (+++=>70%)

stdin: Please report SMARCA2 % Degradation @ 1 μM with SMARCA2-HiBiT HeLa cells (protein which is expressed from the SMARCA2 gene) (Homo sapiens) for item C[C@@H]1CCN(c2cc(-c3ccccc3O)nnc2N)CCN1c1ccnc(C#CCn2cncn2)c1 .
stdout: +++ (+++=>70%)

stdin: Please report SMARCA2 % Degradation @ 1 μM with SMARCA2-HiBiT HeLa cells (protein which is expressed from the SMARCA2 gene) (Homo sapiens) for item CN(C)CC#Cc1cc(OC2CN(c3cc(-c4ccccc4O)nnc3N)C2)ccn1 .
stdout: + (+=<30%)

stdin: Please report SMARCA2 % Degradation @ 1 μM with SMARCA2-HiBiT HeLa cells (protein which is expressed from the SMARCA2 gene) (Homo sapiens) for item C[C@@H]1CCN(c2cc(-c3ccccc3O)nnc2N)CCN1c1ccnc(C#CCN2CCCCC2)c1 .
stdout: ++ (++=30-70%)
